The values you see were collected from paper PMC12693416.

Target: soybean lipoxygenase (LOX-3)
Assay: Soybean lipoxygenase (LOX-3) inhibition
Type: biochemical
Conditions: after 5 min of incubation; sodium linoleate 100 μM, pH 9.0
Method: Lipoxygenase (LOX) inhibitory activity was determined using soybean lipoxygenase (250 U/mL) and sodium linoleate (100 μM) as substrate, in Tris–HCl buffer pH 9.0.
We begin with a simple list: items and their reported IC50.
Reply with just the number (in µM).

Previously resolved entries follow.
1) CC(C)(C)c1cc(C(=O)N2CCSC(c3ccc(-c4ccccc4)cc3)C2)cc(C(C)(C)C)c1O (stereo not drawn)    150
2) COc1cc(C(=O)N2CC(c3ccc(-c4ccccc4)cc3)Sc3ccccc32)cc(OC)c1OC (stereo not drawn)    71
3) COc1cc(/C=C/C(=O)N2CCSC(c3ccc(-c4ccccc4)cc3)C2)ccc1O (stereo not drawn)    68
4) COc1cc(C(=O)N2CCSC(c3ccc(-c4ccccc4)cc3)C2)cc(OC)c1OC (stereo not drawn)    71
5) CC(C)Cc1ccc(C(C)C(=O)N2CCSC(c3ccc(-c4ccccc4)cc3)C2)cc1 (stereo not drawn)    22
6) CC(C)(C)c1cc(/C=C/C(=O)N2CC(c3ccc(-c4ccccc4)cc3)Sc3ccccc32)cc(C(C)(C)C)c1O (stereo not drawn)    58
7) CC(C)(C)c1cc(/C=C/C(=O)N2CCSC(c3ccc(-c4ccccc4)cc3)C2)cc(C(C)(C)C)c1O (stereo not drawn)    252
8) COc1ccc2cc([C@H](C)C(=O)O)ccc2c1 [naproxen, reference compound]    25
9) O=C(c1cc(O)c(O)c(O)c1)N1CC(c2ccc(-c3ccccc3)cc2)Sc2ccccc21 (stereo not drawn)    37
10) O=C(c1cccnc1)N1CCSC(c2ccc(-c3ccccc3)cc2)C1 (stereo not drawn)    192

// below: IC50 requested for another compound
Prompt: Query IC50 on soybean lipoxygenase (LOX-3) for Cc1c(C)c2c(c(C)c1O)CCC(C)(C(=O)N1CCSC(c3ccc(-c4ccccc4)cc3)C1)O2 (stereo not drawn)
Completion: 140
